Provenance of the data: PubChem BioAssay (NCI)

- Test system: SK-MEL-28 melanoma
- Method Notes: NCI-60 one-dose screen, 48 h (100 = growth as untreated, 0 = no growth, -100 = all killed)
- Assay Conditions: 10 µM unless noted
About 83,000 compounds went through this panel and 20% of them were active in at least one assay; those are over-represented in the sample as a whole. Calls of active or inactive are those of the source. Rule for the calls: active = growth percent below 10; inactive = the rest.
Assignment: determine reported growth for the given compounds.

State the recorded growth for this entry: CCNC(=O)c1[nH]cc(-c2ccc(OC)cc2)c1-c1cc(OC)cc(OC)c1
87.9% (inactive)

State the recorded growth for this entry: Cc1nc2sc(C(=O)Nc3cccc(Br)c3)c(N)c2cc1C(=O)c1ccc(C(F)(F)F)cc1
92.1% (inactive)

State the recorded growth for this entry: Cc1ccc(C(c2c(O)c3cc(Br)ccc3[nH]c2=O)c2c(O)c3cc(Br)ccc3[nH]c2=O)cc1
89.6% (inactive)

###

- Test system: NCI-H23 lung
- Method Notes: NCI-60 one-dose screen, 48 h (100 = growth as untreated, 0 = no growth, -100 = all killed)
- Assay Conditions: 10 µM unless noted
The panel holds about 83,000 compounds, 20% with a hit somewhere; the sample as a whole holds those more often.
Result Type: growth (%)
Express your answer in %, writing the number without its unit.

Recorded growth for CCN(CC)CCCC(C)Nc1c2c(nc3ccc(OC)cc13)CCCC2 (centres undefined) with NCI-H23 lung, please?
87.7

Recorded growth for CCN(CC)S(=O)(=O)c1cccc([N+](=O)[O-])c1 with NCI-H23 lung, please?
102

Recorded growth for c1ccc(CCSc2ncnc3nc[nH]c23)cc1 with NCI-H23 lung, please?
96.8

Recorded growth for CN1CCN(CCCOc2ccc3ncnc(Nc4ccc(Oc5cccc(C(F)(F)F)c5)c(Cl)c4)c3c2)CC1 with NCI-H23 lung, please?
44.4

###

- System: SNB-75 CNS
- Method Notes: NCI-60 one-dose screen, 48 h (100 = growth as untreated, 0 = no growth, -100 = all killed)
- Assay Conditions: 10 µM unless noted
Compounds without any hit were thinned out: in the full panel of roughly 83,000, 20% have a hit.
Result Type: growth (%)
Express your answer in %, writing the number without its unit.

State the recorded growth for this entry: COc1nc(N)nc(-n2c(-c3ccc(C)cc3)nc3ccccc32)c1NCc1ccc(C)cc1
75.5

State the recorded growth for this entry: CCOC(=O)N1CCc2c(sc3nc4nc[nH]n4c(=O)c23)C1
89.4

State the recorded growth for this entry: O=C(Nc1cccc(Cl)c1)Oc1c(Br)c(Br)c(Br)c(Br)c1Br
90

State the recorded growth for this entry: CS(=O)(=O)c1ccc(-c2cc(-c3nnc(SCC(=O)Nc4ccc(C(=O)/C=C/c5ccc(Cl)cc5)cc4)n3-c3ccccc3)c3ccccc3n2)cc1
72.3

State the recorded growth for this entry: CSc1nnc2c(=O)n(C)c(=O)n(C)c2n1
100

State the recorded growth for this entry: Nc1c(C(=O)Nc2ccc(Cl)cc2)cc(-c2nc3ccccc3s2)c(=O)n1NS(=O)(=O)c1ccc(Cl)cc1
84.1

State the recorded growth for this entry: O=C(Nc1cccc(C2=NCCN2)c1)c1ccc(OCCCOc2ccc(C(=O)Nc3cccc(C4=NCCN4)c3)cc2)cc1
-1.39

State the recorded growth for this entry: NC(=S)N/N=C(\c1ccc(Cl)cc1)C1CC1
83.7

State the recorded growth for this entry: COc1cccc(NC(=O)c2cccc(-c3cc(=O)c4c(OC)c(OC)c(OC)cc4o3)c2)c1
89.8

State the recorded growth for this entry: COc1cc(/C=C/C(=O)c2c(C)oc3nc[nH]c(=O)c23)ccc1O
84.4

State the recorded growth for this entry: CC(C)C1C2=C(NCCN1C(=O)Cc1ccccc1)C(C)(C)N(Cc1ccccc1)C2=O (stereo not given)
85.3

State the recorded growth for this entry: Cc1c([N+](=O)[O-])cc(C(C)(C)C)cc1[N+](=O)[O-]
89.4

State the recorded growth for this entry: CCCc1cc2c(cc1Br)OCO2
99.9

State the recorded growth for this entry: O=C(Nc1nc(-c2ccccc2Cl)cs1)c1cc(-c2ccccc2)nc2ccc(Cl)cc12
92.9

State the recorded growth for this entry: N#C/C(=C\c1ccc(Br)cc1)n1nnc2cccc(F)c21
-24.8

State the recorded growth for this entry: [O-][n+]1ccccc1CCN(O)CCc1cccc[n+]1[O-]
85.4

State the recorded growth for this entry: O=C(OCc1nc2nc(Cl)nc(N3CCOCC3)c2[nH]1)n1ccnc1
-14.2

State the recorded growth for this entry: CCCCCN1C=C/C(=C\C(=O)N(C)c2cccc3ccccc23)c2ccccc21
103

State the recorded growth for this entry: O=C(Nc1ccc(F)cc1)c1c(NC(=O)C(F)(F)F)sc2c1CCCCC2
-23

State the recorded growth for this entry: CC(=O)OCC(=O)[C@@]1(O)CC[C@H]2[C@@H]3CC(=C(Br)Br)C4=CC(=O)CC[C@]4(C)[C@H]3C(=O)C[C@@]21C
81.2

State the recorded growth for this entry: COc1nccnn1
96.5

State the recorded growth for this entry: O=C1CCCCCCCCC(O)C(O)CCCC(c2cccs2)O1 (stereo not given)
102

State the recorded growth for this entry: CC(=O)c1c(-c2ccc(OC(F)(F)F)cc2)nc2ccccn12
91.9

State the recorded growth for this entry: O=S(=O)(NCCCNc1nccc(-c2c(-c3cccc(O)c3)nc3occn23)n1)c1ccc(Br)cc1
97.4

State the recorded growth for this entry: COc1cccc(CNCCN2C(=O)c3ccc4c5c(ccc(c35)C2=O)C(=O)N(CCNCc2cccc(OC)c2)C4=O)c1
120
